Test system: YAP/TAZ-TEAD transcription
test_method_notes: Reporter gene assay for measuring the inhibition of YAP/TAZ-TEAD transcription (TEAD-responsive element luciferase reporter in Hek293T cells)
Assay type: cell-based
condition_set: Homo sapiens, HEK-293T, 24 h, 24 hours incubation
pIC50: −log10 of the molar value.
measured_property: pIC50

O=C(O)C1CCN2c3ccccc3N(c3ccc(C(F)(F)F)cc3)CC2C1 (centres unmarked) [65A] :: > 6.00
CC(=O)NCC1CN(c2ccc(C(F)(F)F)cc2)c2ccccc2N1CCCO (centres unmarked) :: < 5.00
CC(=O)NCC1CN(c2ccc(C(F)(F)F)cn2)c2cccnc2O1 (centres unmarked) :: 5.00 to 6.00
C=CC(=O)NCC1CN(c2ccc(C(F)(F)F)cc2)c2ccccc2N1CCC(=O)O (centres unmarked) :: < 5.00
O=C(O)C1CCN(c2ccccc2Oc2ccc(C(F)(F)F)cc2)CC1 :: > 6.00
COC(=O)N[C@@H]1C[C@@H]2CN(c3ccc(C(F)(F)F)cc3)c3cccnc3N2C1 :: > 6.00

Given item CNC(=O)N1CCN2c3ncccc3N(c3ccc(C(F)(F)F)cc3)CC2C1 (centres unmarked) , the value recorded as its pIC50 is > 6.00

Given item FC(F)(F)c1ccc(N2CC3CC(c4nnn[nH]4)CCN3c3ccccc32)cc1 (centres unmarked) [121-D1] , the value recorded as its pIC50 is 5.00 to 6.00
